- Test system: MPNST complex spheroid with HUVEC/MSC, growth, % test/control
- experiment: Anticancer human tumor MPNST cell line growth inhibition [Asc];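 note: compounds left on spheroids for seven days before reading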
- applied.conditions: second compound 3.16 µM; first compound 0.1 µM; active compounds read low
measured.metric: viability, T/C

As a guide, the following entries are already answered.
{"molecule": "COc1c(OCCCN2CCOCC2)ccc2c3n(c(=NC(=O)c4cnc(N)nc4)nc12)CCN3 + Cc1c(S(C)(=O)=O)c(-c2cc(F)cc(N3CCN(c4ccc(NS(=O)(=O)c5ccc(NC(CCN6CCC(C(=O)OCCCP(=O)(O)O)CC6)CSc6ccccc6)c(S(=O)(=O)C(F)(F)F)c5)cc4)CC3)c2)c(-c2ccc(Cl)cc2)n1C(C)C", "viability, T/C": "31.1%"}
{"molecule": "Cn1ncnc1[C@H]1c2n[nH]c(=O)c3cc(F)cc(c23)N[C@@H]1c1ccc(F)cc1 + Cc1c(S(C)(=O)=O)c(-c2cc(F)cc(N3CCN(c4ccc(NS(=O)(=O)c5ccc(NC(CCN6CCC(C(=O)OCCCP(=O)(O)O)CC6)CSc6ccccc6)c(S(=O)(=O)C(F)(F)F)c5)cc4)CC3)c2)c(-c2ccc(Cl)cc2)n1C(C)C", "viability, T/C": "56%"}

From here, focus on the item given below.
Enquiry: Name the recorded viability, T/C of C#Cc1c(F)ccc2cc(O)cc(-c3ncc4c(N5CC6CCC(C5)N6)nc(OCC56CCCN5CC(F)C6)nc4c3F)c12 (stereo not drawn) + Cc1c(S(C)(=O)=O)c(-c2cc(F)cc(N3CCN(c4ccc(NS(=O)(=O)c5ccc(NC(CCN6CCC(C(=O)OCCCP(=O)(O)O)CC6)CSc6ccccc6)c(S(=O)(=O)C(F)(F)F)c5)cc4)CC3)c2)c(-c2ccc(Cl)cc2)n1C(C)C , assay system MPNST complex spheroid with HUVEC/MSC, growth, % test/control.
Return: 91.2%

Hey, just so you know, these numbers are from PubChem BioAssay AID1963442.
